biological target: CB2 receptor (Mus musculus, UniProt P47936)
Sequence (P47936 whole entry): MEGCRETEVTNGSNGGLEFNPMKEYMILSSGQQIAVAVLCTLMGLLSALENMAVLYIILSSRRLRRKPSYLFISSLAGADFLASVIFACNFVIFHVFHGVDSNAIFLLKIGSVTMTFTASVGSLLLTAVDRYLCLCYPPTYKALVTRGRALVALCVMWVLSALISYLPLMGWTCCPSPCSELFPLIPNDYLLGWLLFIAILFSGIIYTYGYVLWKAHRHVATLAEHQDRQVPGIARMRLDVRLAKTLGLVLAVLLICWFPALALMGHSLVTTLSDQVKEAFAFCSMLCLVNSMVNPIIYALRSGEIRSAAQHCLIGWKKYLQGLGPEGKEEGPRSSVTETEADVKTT
pKi: −log10 of the molar value.
Would you mind labelling by pKi? At or over 7 is Y, under is N.

Solved cases (3 shown):
> print(dat)
                                   compound  category
1  CCCCC/C=C\C/C=C\C/C=C\C/C=C\CCCCOC(=O)NC1CCC1         N
2  CCCCCN(C)C/C=C\C/C=C\C/C=C\C/C=C\CCCC(=O)NC1CC1         N
3  O=C(CCC/C=C\C/C=C\C/C=C\C/C=C\CCCCCCl)NC1CC1         Y

In: Check the entry CCCCC/C=C\C/C=C\CCCCCCCCOC(=O)NC[C@H](C)O : does pKi equal or exceed 7?
Out: N

----------
target: COX-2 (Homo sapiens); construct: purchased Cayman Chemical; assay: Inhibition of COX: arachidonic acid metabolism; type: biochemical; settings: 25 nmoles compound with 25 nmoles AA, 250 μL, 2 min
Sequence (P35354 18-604): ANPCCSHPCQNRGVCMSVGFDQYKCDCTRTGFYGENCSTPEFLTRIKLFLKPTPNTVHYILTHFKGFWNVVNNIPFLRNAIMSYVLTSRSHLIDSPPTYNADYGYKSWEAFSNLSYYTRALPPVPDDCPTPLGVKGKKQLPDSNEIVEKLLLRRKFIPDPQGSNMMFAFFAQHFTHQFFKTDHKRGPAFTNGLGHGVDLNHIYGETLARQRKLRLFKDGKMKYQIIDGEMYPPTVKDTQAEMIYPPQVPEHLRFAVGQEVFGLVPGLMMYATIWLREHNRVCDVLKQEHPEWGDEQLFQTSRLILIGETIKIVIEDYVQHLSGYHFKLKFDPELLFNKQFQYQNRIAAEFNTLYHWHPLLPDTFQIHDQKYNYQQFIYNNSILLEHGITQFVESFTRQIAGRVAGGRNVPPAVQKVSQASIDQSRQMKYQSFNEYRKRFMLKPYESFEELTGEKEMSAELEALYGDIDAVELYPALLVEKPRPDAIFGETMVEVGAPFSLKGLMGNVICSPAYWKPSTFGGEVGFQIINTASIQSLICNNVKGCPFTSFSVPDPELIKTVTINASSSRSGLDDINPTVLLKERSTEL
Recorded COX-2 % Inhibition, one value per entry.
# output: bare number, implied unit %

Example entries and their recorded answers appear below.
> print(dat)
                         chemical.structure  test.result
1  O=C(CCC/C=C\C/C=C\C/C=C\C/C=C\CCCCc1ccccc1)NCC1CC1         78.4
2  O=C(CCC/C=C\C/C=C\C/C=C\C/C=C\CCc1ccccc1)Nc1ccc(O)cc1         77.4
3  COc1cc(CNC(=O)CCC/C=C\C/C=C\C/C=C\C/C=C\CCCCN=C=S)ccc1O         46.2

Proceeding to the next molecule to report its COX-2 % Inhibition.
Noted for COc1cc(CNC(=O)CCC/C=C\C/C=C\C/C=C\C/C=C\CCCCN=[N+]=[N-])ccc1O : its COX-2 % Inhibition reads 42.4

----------
target: CB2 receptor (Mus musculus, UniProt P47936)
pKi by entry:
Schema: pKi number; meaning minus log10 of the concentration expressed in molar units.

> print(dat)
                                   compound                       experimental.system  test.result
1  CCCCC/C=C\C/C=C\C/C=C\C/C=C\CCCCNC(=O)NC[C@H](C)O [Compound B12]  CB2 receptor (Mus musculus, UniProt P47936)         6.62
2  CC(C)NC(=O)CCC/C=C\C/C=C\C/C=C\C/C=C\CCCCN=C=S [Compound A10]  CB2 receptor (Mus musculus, UniProt P47936)         7.28
3  COc1cc(CNC(=O)CCC/C=C\C/C=C\C/C=C\C/C=C\CCCCCN=[N+]=[N-])ccc1O [Compound A15]  CB2 receptor (Mus musculus, UniProt P47936)         7.13
4  CCCCCC=CCC=CCC=CCC=CCCCCOC(=O)NCC(C)O (stereo not drawn) [Compound B4]  CB2 receptor (Mus musculus, UniProt P47936)         6.60
5  O=C(CCC/C=C\C/C=C\C/C=C\C/C=C\CCc1ccccc1)NCC1CC1 [Compound A2]  CB2 receptor (Mus musculus, UniProt P47936)         6.77

For CCCCCCCCC=CCCCCCCCCOC(=O)NCC(C)O (stereo not drawn) [Compound B13] on CB2 receptor (Mus musculus, UniProt P47936), measured pKi was 5.59

Readout pKi for O=C(CCC/C=C\C/C=C\C/C=C\C/C=C\CCc1ccccc1)Nc1ccc(O)cc1 [Compound A3] , test system CB2 receptor (Mus musculus, UniProt P47936), was 7.08

# pKi measured on CB2 receptor (Mus musculus, UniProt P47936) for item CCCCCN(C)C/C=C\C/C=C\C/C=C\C/C=C\CCCCNC(=O)c1ccc(O)cc1 [Compound A26] = 5.54

Value (pKi, CB2 receptor (Mus musculus, UniProt P47936)) for record O=C(CCC/C=C\C/C=C\C/C=C\C/C=C\CCCCCBr)NC1CC1 [Compound A18] = 7.91
